# Tested on: IGROV-1
# assay_explanation: NCI tumour cell line growth inhibition, 48 h
Activity calls are given as the source filed them. Cut-off read from the data, not from the text of the source: active = GI50 up to about 1.1 µM and inactive = higher.
Below, each entry is listed with its recorded GI50.

## Input Any idea what GI50 was measured for N#C/N=C1\NC(Cc2ccccc2)C(=O)N1CCc1c[nH]c2ccccc12 (stereo unspecified) ?
## Output 31.8 µM (inactive)

## Input Any idea what GI50 was measured for "OCCCCCNc1cc(O)nc(O)n1" ?
## Output > 100 µM (inactive)

## Input Any idea what GI50 was measured for Cc1nn(C(=O)c2ccc(Cl)cc2)c2c1C(c1ccc(O)cc1)SC(=N)N2 (stereo unspecified) ?
## Output > 10 µM (inactive)

## Input Any idea what GI50 was measured for COC(=O)C(=O)C(/C(=N/N)C(=O)Nc1ccccc1C(N)=O)c1nc2ccc([N+](=O)[O-])cc2nc1O (stereo unspecified) ?
## Output > 100 µM (inactive)

## Input Any idea what GI50 was measured for "O=C(c1cccc(C(=O)c2ccc3c4c(cccc24)C(=O)N(c2ccccc2)C3=O)c1)c1ccc2c3c(cccc13)C(=O)N(c1ccccc1)C2=O" ?
## Output 63.7 µM (inactive)

---

# Test system: HOP-62
# assay_explanation: NCI tumour cell line growth inhibition, 48 h
Calls of active or inactive are those of the source. Rule as the data show it: active = GI50 up to about 1.1 µM and inactive = higher.
API: response.call in Y = active, N = inactive

Example results:
COc1ccc(/C=N/NS(=O)(=O)c2ccccc2)cc1	N
CCOc1cccc(/C=N\c2ccccc2SSc2ccccc2/N=C\c2cccc(OCC)c2O)c1O	N
Cc1ccc(S(=O)(=O)NC(=O)NCC(=O)O)cc1	N
CN1CCN(C2=CC(=O)c3c(O)ccc(O)c3C2=O)CC1	Y
Cc1cc(C)c2c(=N)c3ccccc3n(CCCCCCn3c4ccccc4c(=N)c4c(C)cc(C)nc43)c2n1	Y

Consider now this further compound.
## Input Hi, do you know how CCCCCCCCC#CCCCCCCC(F)C(=O)O (stereo unspecified) came out in this test?
## Output N

---

# System: HCT-116
# assay_explanation: NCI tumour cell line growth inhibition, 48 h
The source made the active and inactive calls. Rule as the data show it: active = GI50 up to about 1.1 µM and inactive = higher.
Below, each entry is listed with its recorded GI50.

CCOC(=O)NC(OCCN(C)C)(C(F)(F)F)C(F)(F)F	> 100 µM (inactive)
CC(C)N(C(=O)C12C3C4C5(C#N)C3C1(C#N)C5C42I)C(C)C (stereo unspecified)	17.4 µM (inactive)
NNC(=O)CNC(=O)CSc1nnc(COc2ccc(Cl)cc2)n1-c1ccccc1	> 100 µM (inactive)
N#Cc1c(-c2ccc(Cl)cc2)cc(-c2ccc(Nc3ccnc4cc(C(F)(F)F)ccc34)cc2)nc1N	10.6 µM (inactive)
CC(C)(C)NC1=NC(C(F)(F)F)(C(F)(F)F)NC(=O)N1	38.9 µM (inactive)

## Input What value of GI50 on HCT-116 does COc1ccc(C2C3CCc4ccccc4C3=NN2S(=O)(=O)c2ccc(/C=C/C(=O)O)cc2)cc1 (stereo unspecified) have?
## Output 3.53 µM (inactive)

## Input What value of GI50 on HCT-116 does "c1csc(-c2csc(-c3ccsc3)c2)c1" have?
## Output > 100 µM (inactive)

## Input What value of GI50 on HCT-116 does "COC(=O)c1nc(-c2nc(CCNC(=O)OC(C)(C)C)sc2Cl)sc1Cl" have?
## Output 60.7 µM (inactive)

## Input What value of GI50 on HCT-116 does C=CCC1(C#N)C(=S)NC2=C(C(=O)CC(C)(C)C2)C1c1ccccc1 (stereo unspecified) have?
## Output 59.4 µM (inactive)

## Input What value of GI50 on HCT-116 does "O=C1c2c(Br)sc(Br)c2[C@H]2OC(=S)N[C@@H]12" have?
## Output 2.81 µM (inactive)

## Input What value of GI50 on HCT-116 does "COC(=O)c1sc2c(c1C(=O)OC)/C(=N/C(C)(C)C)S/C2=N\C(C)(C)C" have?
## Output 15.6 µM (inactive)

## Input What value of GI50 on HCT-116 does "CC1(C)CC(=O)C(C(c2cccc(O)c2O)C2C(=O)CC(C)(C)CC2=O)C(=O)C1" have?
## Output > 100 µM (inactive)

## Input What value of GI50 on HCT-116 does "Cc1nc(-n2nc(-c3ccccc3)cc2-c2ccccc2)sc1C(=O)CC(=O)C(=O)Nc1ccc(Cl)c(Cl)c1" have?
## Output 64.6 µM (inactive)

## Input What value of GI50 on HCT-116 does CCC(c1nc2ccccc2c(=O)n1NC(=O)C(C)(C)C)C1(O)CCCCC1 (stereo unspecified) have?
## Output > 100 µM (inactive)

---

Below, each entry is listed with its recorded GI50.
# Test system: HCC 2998
# assay_explanation: NCI tumour cell line growth inhibition, 48 h
Activity calls are given as the source filed them. No stated cut-off is given here; in the data, active = GI50 up to about 1.1 µM and inactive = higher.

Worked examples, 5 molecules total:
O[C@@H]1[C@H](OC2c3ccccc3-c3ccccc32)[C@H](OCc2ccccc2)[C@@H]2OC[C@H]1O2	75.7 µM (inactive)
c1csc(-c2csc(-c3ccsc3)c2)c1	> 100 µM (inactive)
Cc1nc2cccc(F)c2c(=O)n1-c1nnc(C(F)(F)F)s1	> 10 µM (inactive)
C[C@H](CCC(=O)NN)[C@H]1CC[C@H]2[C@@H]3CC[C@@H]4C[C@H](O)CC[C@]4(C)[C@H]3CC[C@]12C	41.4 µM (inactive)
CCOc1ccccc1NC(=O)CC1C(=O)Nc2ccccc2[S+]1[O-] (stereo not drawn)	> 100 µM (inactive)

## Input Any idea what GI50 was measured for "COc1cc2nc(-c3ccccc3F)nc(O)c2cc1OC" ?
## Output > 100 µM (inactive)

## Input Any idea what GI50 was measured for COC(=O)C(C(=O)C(=O)Nc1ccc(N)cc1[N+](=O)[O-])c1nc2ccc(Cl)cc2nc1O (stereo not drawn) ?
## Output > 100 µM (inactive)

## Input Any idea what GI50 was measured for COc1ccc(C2SCC(=O)N2NC(=O)C(C)Oc2ccc(Cl)cc2Cl)cc1 (stereo not drawn) ?
## Output 55.6 µM (inactive)

---

Below, each entry is listed with its recorded GI50.
# System: HOP-92
# assay_explanation: NCI tumour cell line growth inhibition, 48 h
The source made the active and inactive calls. Cut-off read from the data, not from the text of the source: active = GI50 up to about 1.1 µM and inactive = higher.

Worked examples, 8 compounds total:
C#CC1NC(=O)C1N(CC)CC (centres undefined)	> 100 µM (inactive)
O=C1/C(=C2\SCC(=O)N2c2ccccc2)SC(=S)N1c1ccccc1	23.3 µM (inactive)
CC(C)(C)OC(=O)C1C(=O)NC(=O)CC1C(COCc1ccccc1)OCc1ccccc1 (centres undefined)	15.5 µM (inactive)
O=S(=O)(N=[Se](=O)(c1ccccc1)c1ccccc1)c1ccccc1	> 100 µM (inactive)
O=C1c2ccccc2-c2ccccc2C(=O)C1(Br)Br	3.21 µM (inactive)
COc1cc2c(cc1OC)C13CCN4CC5=CCOC6CC(=O)N2C1C6C5CC43O (centres undefined)	> 100 µM (inactive)
C/C(=C\C(C)COCc1ccccc1)[C@H](COCc1ccccc1)OCc1ccccc1 (some centres undefined)	10.4 µM (inactive)
COCC1OC(OC2OCC3OC4(OCC(O)(C(C)OC)C5OCOC54)OC3C2OC)C(OC)C(O)C1OC1OC(C)C(OC)C(OC2OC(C)C3OC4(CC(O)C(OC5CC(OC6CC(C)([N+](=O)[O-])C(OC)C(C)O6)C(OC(=O)c6c(C)c(Cl)c(O)c(Cl)c6OC)C(C)O5)C(C)O4)OC3(C)C2O)C1O (centres undefined)	> 100 µM (inactive)

## Input Any idea what GI50 was measured for "CN(C)CCNC(=O)c1cccc2c(NCCN(C)C)c3ccccc3nc12" ?
## Output 2.16 µM (inactive)

---

# Test system: HCT-116
# assay_explanation: NCI tumour cell line growth inhibition, 48 h
The source made the active and inactive calls. Cut-off read from the data, not from the text of the source: active = GI50 up to about 1.1 µM and inactive = higher.
API: response.call in y = active, n = inactive

COc1ccc(C2=Nc3ccccc3SC(C)C2)cc1 (centres undefined)	n
CN(C)CCNC(=O)c1ccc(NCCCN(C)CCCNc2ccc(C(=O)NCCN(C)C)c3nc4ccc([N+](=O)[O-])cc4c(O)c23)c2c(O)c3cc([N+](=O)[O-])ccc3nc12	y
NC(=O)c1csc(C2(O)COC(CO)C2O)n1 (centres undefined)	n

## Input Hi, do you know how COC(=O)[C@]12CC=C3O[C@@H]4OC5(CCCCC5)O[C@@H]4C3[C@@H]1C(=O)CCC2=O (some centres undefined) came out in this test?
## Output n

---

# Tested on: NCI-H460
# assay_explanation: NCI tumour cell line growth inhibition, 48 h
Calls of active or inactive are those of the source. No stated cut-off is given here; in the data, active = GI50 up to about 1.1 µM and inactive = higher.
test_readout: GI50

Cc1c(C(=O)CC(=O)C(=O)Nc2ccc(Cl)cc2)[n+]([O-])c2ccccc2[n+]1[O-]	> 100 µM (inactive)
O=C(O)CSCC(=O)c1ccccc1	> 100 µM (inactive)

We next turn to a different compound, shown below.
## Input What value of GI50 on NCI-H460 does "O=C(CCc1nnc(S)[nH]1)Nc1cc(Cl)ccc1Cl" have?
## Output > 100 µM (inactive)
